Could you please report measured inhibition for the items listed next?
# protocol_text: PhoP-dependent GFP reporter repression – Salmonella Typhimurium, primary screen (AID 1863);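 also: 0% = low Mg2+ inducing control and 100% = high Mg2+ repressing control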
# measurement_parameters: S. Typhimurium PhoP-regulated promoter GFP reporter, 4 h; at 50 µM; active compounds read high
About 480 (0.16%) of roughly 300,000 compounds were called active. Not all results are given here. Potency and affinity values are given separately.
Answer format: numeric, % implied, no suffix.

Input line: Dear colleague, I am looking for the recorded inhibition of the following compound: `O=C(Nc1ccccc1N1CCN(C(=O)c2ccc(Cl)cc2)CC1)c1cccc(F)c1`
Output line: 2.12

Input line: Next up: `O=c1oc2ccccc2c(O)c1Cc1cc(Cl)c2cccnc2c1O`
Output line: -10

Input line: Next up: `CCN(CC)CCNC(=O)c1cn(CC)c2cc(N3CCN(C)CC3)c(F)cc2c1=O`
Output line: 25.1

Input line: Next up: `O=C(Oc1ccc(Cl)c2cccnc12)c1ccco1`
Output line: 19.6

Input line: Next up: `CCn1cc(C(=O)NCc2ccc3c(c2)OCO3)c(=O)c2cc(F)c(N3CCN(C)CC3)cc21`
Output line: 6.63

Input line: Next up: `Cc1ccc(C(=O)NC2CCCCC2)cc1S(=O)(=O)N1CCCC1`
Output line: 4.45

Input line: Next up: `COC(=O)c1ccc(OCC(=O)c2ccc(C)c(C)c2)cc1`
Output line: -11.3

Input line: Next up: CCC(Oc1ccccc1)C(=O)Nc1nc2ccccc2[nH]1 (stereo unspecified)
Output line: -3.54

Input line: Next up: `O=C(Nc1nc(-c2cccs2)cs1)c1ccc(Cl)s1`
Output line: 7.37

Input line: Next up: `Cc1nn(-c2ccccc2)c(N2CCCC2)c1C=O`
Output line: -1.38

Input line: Next up: `O=C(CS(=O)(=O)c1ccccc1)NC1CCCCC1`
Output line: -0.8

----------
# protocol_text: PhoP-dependent GFP reporter repression – Salmonella Typhimurium, primary screen (AID 1863);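 also: 0% = low Mg2+ inducing control and 100% = high Mg2+ repressing control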
# measurement_parameters: S. Typhimurium PhoP-regulated promoter GFP reporter, 4 h; at 50 µM; active compounds read high
The whole screen tested about 300,000 compounds, of which about 480 (0.16%) were called active. Not all results are given here. Entries with a potency or affinity are not part of this list.
measured_endpoint: inhibition (%)
Answer format: numeric, % implied, no suffix.

Input line: Dear colleague, I am looking for the recorded inhibition of the following compound: `Cn1c(-c2ccccc2)c(CCO)c2ccccc21`
Output line: -0.97

Input line: Next up: `Nc1cc(C(=O)O)c(Oc2ccc(Cl)cc2Cl)cc1C(=O)O`
Output line: 9.23

Input line: Next up: Cc1cc(C)n(C(C[N+](=O)[O-])c2ccc(Cl)cc2)n1 (stereo unspecified)
Output line: 16.6

Input line: Next up: `CCOC(=O)c1c(C)[nH]c(C(=O)COC(=O)CNC(=O)c2ccccc2Cl)c1C`
Output line: -9.12

Input line: Next up: Cc1ccc(C(C[N+](=O)[O-])n2nc(C)cc2C)cc1 (stereo unspecified)
Output line: 4.29

Input line: Next up: O=C(Nc1ccc(S(=O)(=O)N2CCc3ccccc3C2)cc1)C1CCCO1 (stereo unspecified)
Output line: 13.2

Input line: Next up: `CC(C)CNC(=O)COC(=O)c1cccc(S(=O)(=O)NCC(F)(F)F)c1`
Output line: 0.22

Input line: Next up: `CO[C@@]12[C@H](COC(N)=O)C3=C(C(=O)C(C)=C(N)C3=O)N1C[C@@H]1N[C@@H]12`
Output line: 17.4

Input line: Next up: `CC(=O)Nc1ccc(Nc2cc(C)c3ccccc3n2)cc1`
Output line: -1.27

Input line: Next up: `O=[n+]1c2c(n([O-])c3cc(F)c(F)cc31)CCCC2`
Output line: -5.91

Input line: Next up: `CC(=O)c1cccc(NC(=O)CCc2nnc3ccc(N4CCOCC4)nn23)c1`
Output line: 9.13

----------
# protocol_text: PhoP-dependent GFP reporter repression – Salmonella Typhimurium, primary screen (AID 1863);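 also: 0% = low Mg2+ inducing control and 100% = high Mg2+ repressing control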
# measurement_parameters: S. Typhimurium PhoP-regulated promoter GFP reporter, 4 h; at 50 µM; active compounds read high
The whole screen tested about 300,000 compounds, of which about 480 (0.16%) were called active. A selection follows. Potency and affinity values are given separately.
Could you please report measured inhibition for the items listed next?
Answer format: numeric, % implied, no suffix.

Input line: Dear colleague, I am looking for the recorded inhibition of the following compound: `CCN1CCN(C(=O)c2cnn3c(C(F)F)cc(-c4ccc(C)cc4)nc23)CC1`
Output line: 7.14

Input line: Next up: Cc1ccc2cc(C(c3nnnn3C3CCCC3)N(Cc3ccco3)Cc3cccs3)c(=O)[nH]c2c1 (stereo unspecified)
Output line: -2.55

Input line: Next up: `CCCCCCCCCCCCCCCC[n+]1ccc(C(N)=O)cc1`
Output line: 20.5

Input line: Next up: COc1ccc(CC2(CO)CCN(C(C)COc3ccccc3)CC2)cc1 (stereo unspecified)
Output line: -5.24

Input line: Next up: `Nc1c2ccccc2nc2ccccc12`
Output line: 20.8

Input line: Next up: CCC(=O)NC(c1ccc(OC)cc1)c1cc(Cl)c2cccnc2c1O (stereo unspecified)
Output line: 2.08

----------
# protocol_text: PhoP-dependent GFP reporter repression – Salmonella Typhimurium, primary screen (AID 1863);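 also: 0% = low Mg2+ inducing control and 100% = high Mg2+ repressing control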
# measurement_parameters: S. Typhimurium PhoP-regulated promoter GFP reporter, 4 h; at 50 µM; active compounds read high
The whole screen tested about 300,000 compounds, of which about 480 (0.16%) were called active. The list is a sample of the results. Measured potencies and affinities stand elsewhere.
Could you please report measured inhibition for the items listed next?
Answer format: numeric, % implied, no suffix.

Input line: Dear colleague, I am looking for the recorded inhibition of the following molecule: `Cc1ccccc1NC(=O)NC1(C(=O)NCc2ccco2)CCCCC1`
Output line: -5.56

Input line: Next up: `CCOc1ccc(C(=O)Nc2ccc(N3CCN(C)CC3)cc2)cc1`
Output line: -7.33

Input line: Next up: `C[C@H]1COc2c(N3CCN(C)CC3)c(F)cc3c(=O)c(C(=O)O)cn1c23`
Output line: -9.45

Input line: Next up: `O=c1cc(N2CCN(c3ccccc3F)CC2)[nH]c(=O)n1-c1ccc(Br)cc1`
Output line: -3.95

Input line: Next up: `COc1cccc(N2CCN(C(=O)CN(C)S(=O)(=O)c3ccc4c(c3)c(=O)n(C)c(=O)n4C)CC2)c1`
Output line: 3.8

Input line: Next up: Cc1cccc(NC(=O)CSc2nnc(-c3ccncc3)n2CC2CCCO2)c1 (centres undefined)
Output line: 0.37

Input line: Next up: O=C(c1ccc(N2CCN(C3CC(=O)N(Cc4cccs4)C3=O)CC2)cc1)c1cccnc1 (centres undefined)
Output line: 4.02

Input line: Next up: `C[C@H]1COc2c(C3(N)CC3)c(F)cc3c(=O)c(C(=O)O)cn1c23`
Output line: -7.84

Input line: Next up: `CCn1ccnc1[C@@H]1C[C@H]2CN(Cc3cccc(Cl)c3)C(=O)[C@]23CCCN13`
Output line: 3.68

Input line: Next up: `O=Cc1ccc2ccc3cccnc3c2n1`
Output line: -0.13

Input line: Next up: CC(C)(C)NCC(O)CON=C1c2ccccc2-c2ccccc21 (centres undefined)
Output line: -0.28

Input line: Next up: `Brc1ccc(CNCc2cccs2)cc1`
Output line: 10.4

Input line: Next up: Cc1cc(C)cc(NC(=O)CC2NCCNC2=O)c1 (centres undefined)
Output line: -1.2

Input line: Next up: `Cc1cc(SCC(=O)N/N=C/c2ccc(O)cc2O)c(C)cc1Br`
Output line: -6.96

Input line: Next up: `CC(=O)N/N=C/c1c(C)[nH]n(-c2ccccc2)c1=O`
Output line: 3.32

Input line: Next up: `COc1ccc(-c2cc(C(=O)OCC(=O)NC(C)C)c3ccccc3n2)cc1`
Output line: 6.33

Input line: Next up: `CCOc1ccc(C(=O)Nc2ccc(S(=O)(=O)N3CCN(C)CC3)cc2)cc1`
Output line: 8.02

Input line: Next up: `CC(=O)c1cccc(NC(=O)CCCNC(=O)c2ccc(Cl)cc2)c1`
Output line: 0.5

Input line: Next up: COCCNCC(O)CON=C1c2ccccc2-c2ccccc21 (centres undefined)
Output line: -2.34

Input line: Next up: `Cc1ccc(C(=O)N/C(=C\c2ccco2)C(=O)NCc2cccnc2)cc1`
Output line: 2

Input line: Next up: COc1cc2c(cc1OC)C(COc1ccc([N+](=O)[O-])cc1)NCC2 (centres undefined)
Output line: 5.02

Input line: Next up: `CC(C)C[C@H](NC(=O)N1CCn2c1nc1ccccc12)C(=O)NCc1ccco1`
Output line: -1.56

Input line: Next up: `Cc1cc(C(=O)N/N=C/c2cc(Cl)cc([N+](=O)[O-])c2O)c2ccccc2n1`
Output line: 28.8

Input line: Next up: `Cc1cc(SCC(=O)N/N=C/c2ccc(O)c(O)c2)c(C)cc1Br`
Output line: -9.61

Input line: Next up: `Oc1ccc(/C=N/NC(=S)Nc2cccnc2)c(O)c1O`
Output line: 8.35

Input line: Next up: `Cc1nc2c(C)cccn2c(=O)c1NC(=O)c1ccco1`
Output line: 6.47

Input line: Next up: `Oc1ccc(/C=N\Nc2nncc(-c3ccccc3)n2)cc1`
Output line: 1.9

Input line: Next up: C=CCOC(=O)C1=C(C)NC(SCC(=O)Nc2nccs2)=C(C#N)C1c1cccs1 (centres undefined)
Output line: -14.1

Input line: Next up: CC(NC(=O)C1CCN(S(=O)(=O)c2ccc3nc4c(c(C(=O)O)c3c2)CCCC4)CC1)c1ccccc1 (centres undefined)
Output line: -8.3

Input line: Next up: `O=C(CCNC(=O)c1ccc([N+](=O)[O-])cc1)NCCc1ccc(Cl)cc1`
Output line: 8.36

Input line: Next up: `CCOC(=O)c1c(-c2ccccc2)nc2cc(C)ccn12`
Output line: -0.32

Input line: Next up: `Cc1cc2c(cc(C(=O)NCc3cccnc3)n2Cc2ccc(Cl)cc2)o1`
Output line: 13

Input line: Next up: `Fc1ccc(CNCc2ccccc2Cl)cc1`
Output line: 5.07

Input line: Next up: `COc1cccc(-c2nc(=S)c3c(n2CCCO)CCCC3)c1`
Output line: 6.79

Input line: Next up: `NC(=O)c1ccc(NC(=O)COc2coc(CN3CCc4ccccc4C3)cc2=O)cc1`
Output line: 6.56

Input line: Next up: `COC(=O)c1c(C)[nH]c(O)c1C=Nc1ccc(Oc2ccccc2)cc1`
Output line: -5.37

Input line: Next up: `CCCCCCn1cc(C(=O)O)c(=O)c2cc(F)c(N3CCN(C)CC3)cc21`
Output line: -2.32

Input line: Next up: `CN1CCN(c2c(F)cc3c(=O)c(C(=O)O)cn(CCF)c3c2F)CC1`
Output line: -2.24

Input line: Next up: O=C(NC(Cc1ccccc1)C(=O)NCc1ccccn1)c1ccco1 (centres undefined)
Output line: 1.32

Input line: Next up: CCn1cc(C(=O)NCC2CCCO2)c(=O)c2cc(F)c(N3CCN(C)CC3)cc21 (centres undefined)
Output line: 0.68

Input line: Next up: `COc1ccccc1CNCc1ccc(C)cc1`
Output line: 8.2

Input line: Next up: CC(C)CCNC(=O)C12CN(Cc3ccccc3)CC1C(c1ccc([N+](=O)[O-])cc1)=NO2 (centres undefined)
Output line: 16.1

Input line: Next up: `COc1cc(CNCCc2ccc(F)cc2)ccc1OCc1ccc(Cl)nc1`
Output line: 23.3

Input line: Next up: `C/C(=N\Nc1nc2ccccc2[nH]1)c1ccc(Cl)s1`
Output line: 31.6

Values from PubChem BioAssay AID1863
